- studyTarget: FFL_001
- protocol: ELISA; printed as ng/uL

{"columns": ["binder", "valueUnit", "EC50"],
 "data": [
  ["Palivizumab (antibody, V domains shown) VH: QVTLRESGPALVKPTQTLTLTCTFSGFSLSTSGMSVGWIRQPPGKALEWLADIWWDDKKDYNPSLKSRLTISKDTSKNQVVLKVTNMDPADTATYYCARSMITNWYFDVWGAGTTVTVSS VL: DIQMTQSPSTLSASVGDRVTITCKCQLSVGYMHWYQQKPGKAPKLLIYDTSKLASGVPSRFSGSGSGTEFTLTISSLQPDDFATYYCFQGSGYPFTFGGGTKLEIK", "µg/mL", 49],
  ["14N4 (antibody, V domains shown) VH: QVQLVESGGGLIQPGGSLRLSCAVSGFTVSSKYMTWVRQAPGKGLEWVSVIYGGGSTYYADSVVGRFTISRDNSKNTLYLQMNSLRAEDTAVYYCASRLGVRATTGDLDYWGQGTLVTVSS VL: QIVMTQSPSTLSASVGDRVTITCRASQSISSWLAWYQQKPGKAPKLLIYDASSLESGVPSRFSGSGSGTEFTLTISSLQPDDFATYYCQQYNTYSWWTFGQGTKVEIK", "µg/mL", 19.3],
  ["13A8 (antibody, V domains shown) VH: QVQLVESGGGVVQPGKSLRLSCAASGYIFSSYDMHWVRQAPGKGLEWVAVISFDGTTQHYADSVRGRFTVSRDNSQNTVFLQMNSLRPEDTAVYYCVKEYVIVSTFFDYWGQGTLVTVSS VL: DIVMTQSPSSLSASVGDRVTITCRASQGIRNALGWYQHKPGKAPKVLIYAASRLQSGVPSRFSGSGSGTDFTLTISSLQPEDFATYYCLQDFNYPWTFGHGTKVEIK", "µg/mL", 17.9],
  ["Motavizumab (antibody, V domains shown) VH: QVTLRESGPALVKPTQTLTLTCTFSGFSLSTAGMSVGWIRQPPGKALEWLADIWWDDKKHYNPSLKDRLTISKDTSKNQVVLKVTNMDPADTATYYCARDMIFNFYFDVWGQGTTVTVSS VL: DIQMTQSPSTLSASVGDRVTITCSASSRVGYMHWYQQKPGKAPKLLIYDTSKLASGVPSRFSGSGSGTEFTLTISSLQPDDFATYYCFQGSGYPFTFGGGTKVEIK", "µg/mL", 10.4]
]}
